# Test system: hP2X2/3 (heterodimeric receptors formed by human purinergic P2X receptors subtype 2 and subtype 3) (Homo sapiens (Human), UniProt P56373+Q9UBL9)
# Sequence (P56373 whole entry): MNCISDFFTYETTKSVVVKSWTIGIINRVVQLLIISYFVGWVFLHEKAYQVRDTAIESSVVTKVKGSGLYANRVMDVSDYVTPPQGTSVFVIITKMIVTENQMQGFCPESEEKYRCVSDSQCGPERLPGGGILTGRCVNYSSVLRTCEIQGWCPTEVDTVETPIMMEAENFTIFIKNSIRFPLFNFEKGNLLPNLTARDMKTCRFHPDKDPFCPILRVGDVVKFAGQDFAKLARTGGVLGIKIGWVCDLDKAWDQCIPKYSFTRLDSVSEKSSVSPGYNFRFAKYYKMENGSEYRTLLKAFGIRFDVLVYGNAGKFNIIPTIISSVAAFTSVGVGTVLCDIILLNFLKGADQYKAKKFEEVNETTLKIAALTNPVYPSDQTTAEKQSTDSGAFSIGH
# Sequence (Q9UBL9 whole entry): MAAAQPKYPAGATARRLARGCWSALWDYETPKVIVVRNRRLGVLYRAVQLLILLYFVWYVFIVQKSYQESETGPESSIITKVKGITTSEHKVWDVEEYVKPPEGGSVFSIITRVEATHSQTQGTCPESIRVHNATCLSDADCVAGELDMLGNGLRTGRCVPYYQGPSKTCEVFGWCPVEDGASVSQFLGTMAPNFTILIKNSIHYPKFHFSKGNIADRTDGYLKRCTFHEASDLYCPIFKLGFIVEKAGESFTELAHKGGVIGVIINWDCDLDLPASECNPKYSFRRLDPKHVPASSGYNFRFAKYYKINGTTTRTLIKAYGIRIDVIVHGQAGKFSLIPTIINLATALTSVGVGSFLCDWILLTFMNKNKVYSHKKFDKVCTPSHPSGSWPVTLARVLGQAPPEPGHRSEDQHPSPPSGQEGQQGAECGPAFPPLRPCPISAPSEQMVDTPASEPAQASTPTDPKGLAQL
# Assay: FLIPR calcium assay, hP2X2/3 expressed in HEK293 cells (P2X2/3 receptor selectivity)
# Condition summary: HEK293 cells expressing hP2X2/3, agonist BZ-ATP 5 μM; unit inferred
Parameter: IC50

- Compound: "CC(=O)N1CCO[C@@H](Cc2c(-c3c(F)cc(-n4ccnc4)cc3F)nc3cc(C)ccn23)C1 [Compound 162]"
  Parameter: "IC50"
  Result: "> 60 µM"
- Compound: "COC(=O)N1CCO[C@@H](Cc2c(-c3c(F)cc(-n4cnnn4)cc3F)nc3cc(C)ccn23)C1 [Compound 58]"
  Parameter: "IC50"
  Result: "> 60 µM"
- Compound: "CCC(=O)c1ccn(-c2cc(F)c(-c3nc4cc(C)ccn4c3C[C@H]3CN(C(=O)OC)CCO3)c(F)c2)n1 [Compound 164]"
  Parameter: "IC50"
  Result: "> 60 µM"

Problem: Consider the compound COC(=O)Nc1cc(F)c(-c2nc3cc(C)ccn3c2C[C@H]2CN(C(=O)OC)CCO2)c(F)c1 [Compound 3] and give its recorded IC50.
Result: > 60 µM
